Details: 303.15 K; 100 kPa; Liquid; Vibrating tube method
Measured mass density of individual entries
recorded-metric: mass density (kg/m3)

- molecule: "CCC[n+]1cccc(C)c1.O=S(=O)([N-]S(=O)(=O)C(F)(F)F)C(F)(F)F"
  recorded-metric: "mass density"
  obs-value: 1444.4
- molecule: "CCCC[N+]1(C)CCCC1.O=S(=O)([N-]S(=O)(=O)C(F)(F)F)C(F)(F)F"
  recorded-metric: "mass density"
  obs-value: 1399.3
- molecule: "CCn1cc[n+](C)c1.O=S(=O)([O-])C(F)(F)F [1-ethyl-3-methylimidazolium trifluoromethanesulfonate]"
  recorded-metric: "mass density"
  obs-value: 1370.2
- molecule: "CCC[N+]1(C)CCCCC1.O=S(=O)([N-]S(=O)(=O)C(F)(F)F)C(F)(F)F"
  recorded-metric: "mass density"
  obs-value: 1407.2
- molecule: "CCC[N+]1(C)CCCC1.O=S(=O)([N-]S(=O)(=O)C(F)(F)F)C(F)(F)F"
  recorded-metric: "mass density"
  obs-value: 1428.6

* * *

Details: 293.15 K; 1000 kPa; Liquid; Vibrating tube method

- molecule: "CCC[n+]1cccc(C)c1.O=S(=O)([N-]S(=O)(=O)C(F)(F)F)C(F)(F)F"
  mass density (kg/m3): 1455.6
- molecule: "CCn1cc[n+](C)c1.O=S(=O)([O-])C(F)(F)F [1-ethyl-3-methylimidazolium trifluoromethanesulfonate]"
  mass density (kg/m3): 1380
- molecule: "CCCC[N+]1(C)CCCC1.O=S(=O)([N-]S(=O)(=O)C(F)(F)F)C(F)(F)F"
  mass density (kg/m3): 1409.7
- molecule: "CCC[N+]1(C)CCCCC1.O=S(=O)([N-]S(=O)(=O)C(F)(F)F)C(F)(F)F"
  mass density (kg/m3): 1417.6
- molecule: "CCC[N+]1(C)CCCC1.O=S(=O)([N-]S(=O)(=O)C(F)(F)F)C(F)(F)F"
  mass density (kg/m3): 1439.3

* * *

Conditions: 303.15 K; 7500 kPa; Liquid; Vibrating tube method
recorded-metric: mass density (kg/m3)

- molecule: "CCC[N+]1(C)CCCC1.O=S(=O)([N-]S(=O)(=O)C(F)(F)F)C(F)(F)F"
  obs-value: 1434.1
- molecule: "CCCC[N+]1(C)CCCC1.O=S(=O)([N-]S(=O)(=O)C(F)(F)F)C(F)(F)F"
  obs-value: 1404.8
- molecule: "CCn1cc[n+](C)c1.O=S(=O)([O-])C(F)(F)F [1-ethyl-3-methylimidazolium trifluoromethanesulfonate]"
  obs-value: 1374.6
- molecule: "CCC[N+]1(C)CCCCC1.O=S(=O)([N-]S(=O)(=O)C(F)(F)F)C(F)(F)F"
  obs-value: 1412.5
- molecule: "CCC[n+]1cccc(C)c1.O=S(=O)([N-]S(=O)(=O)C(F)(F)F)C(F)(F)F"
  obs-value: 1450.3

* * *

Measured mass density of individual entries
Conditions: 303.15 K; 25000 kPa; Liquid; Vibrating tube method
± gives the expanded uncertainty stated by the source.
recorded-metric: mass density

- compound: "CCC[N+]1(C)CCCCC1.O=S(=O)([N-]S(=O)(=O)C(F)(F)F)C(F)(F)F"
  obs-value: "1424.4 ± 12 kg/m3"
- compound: "CCC[N+]1(C)CCCC1.O=S(=O)([N-]S(=O)(=O)C(F)(F)F)C(F)(F)F"
  obs-value: "1446.4 ± 12 kg/m3"
- compound: "CCn1cc[n+](C)c1.O=S(=O)([O-])C(F)(F)F [1-ethyl-3-methylimidazolium trifluoromethanesulfonate]"
  obs-value: "1384.7 ± 12 kg/m3"
- compound: "CCCC[N+]1(C)CCCC1.O=S(=O)([N-]S(=O)(=O)C(F)(F)F)C(F)(F)F"
  obs-value: "1417 ± 12 kg/m3"
- compound: "CCC[n+]1cccc(C)c1.O=S(=O)([N-]S(=O)(=O)C(F)(F)F)C(F)(F)F"
  obs-value: "1463.1 ± 12 kg/m3"
